Reported %-inhibition of PAK3 values for the following compounds.
# assayed_target: panel of more than 300 wild-type and mutant kinases (313 kinase panel) (Homo sapiens, UniProt O75914)
# Sequence (O75914 whole entry, change not shown): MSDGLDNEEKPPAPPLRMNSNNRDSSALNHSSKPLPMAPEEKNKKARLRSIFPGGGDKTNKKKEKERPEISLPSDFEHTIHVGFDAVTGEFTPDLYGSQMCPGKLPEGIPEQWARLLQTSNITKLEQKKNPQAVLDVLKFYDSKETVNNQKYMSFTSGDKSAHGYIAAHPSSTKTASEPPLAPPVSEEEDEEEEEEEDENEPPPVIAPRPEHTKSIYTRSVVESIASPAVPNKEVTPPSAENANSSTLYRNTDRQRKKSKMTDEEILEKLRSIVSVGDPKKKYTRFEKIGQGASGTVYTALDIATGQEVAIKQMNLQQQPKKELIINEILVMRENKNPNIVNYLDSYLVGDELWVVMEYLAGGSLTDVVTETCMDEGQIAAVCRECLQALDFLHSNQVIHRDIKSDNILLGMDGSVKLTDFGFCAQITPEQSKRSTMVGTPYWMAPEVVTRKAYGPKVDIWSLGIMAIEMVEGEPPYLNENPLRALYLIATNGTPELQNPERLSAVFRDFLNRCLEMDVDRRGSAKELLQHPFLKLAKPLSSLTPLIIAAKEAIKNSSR
# assay_info: Kinase profiling in a biochemical assay panel (mobility shift assays and ELISA), %-inhibition at 1 μM; selectivity entropy
# measurement_setup: kinase PAK3; 1 μM
Express it in %; write the number only.

Query: Look up %-inhibition of PAK3: Cc1cn(-c2cc(NC(=O)c3ccc(C)c(Nc4nccc(-c5cccnc5)n4)c3)cc(C(F)(F)F)c2)cn1
Reply: -4

Query: What would you report for CS(=O)(=O)CCNCc1ccc(-c2ccc3ncnc(Nc4ccc(OCc5cccc(F)c5)c(Cl)c4)c3c2)o1 ?
Reply: 4.27

Query: Input Cc1nc(Nc2ncc(C(=O)Nc3c(C)cccc3Cl)s2)cc(N2CCN(CCO)CC2)n1
Reply: -1.28

Query: Would you mind doing Cc1ccc(Nc2nccc(N(C)c3ccc4c(C)n(C)nc4c3)n2)cc1S(N)(=O)=O as well?
Reply: 6

====

# assayed_target: panel of more than 300 wild-type and mutant kinases (313 kinase panel) (Homo sapiens)
# assay_info: Kinase profiling in a biochemical assay panel (mobility shift assays and ELISA), %-inhibition at 1 μM; selectivity entropy
# measurement_setup: kinase p70S6K; 1 μM
property_name: %-inhibition of p70S6K (%)
# value in %; strip the unit string

Cc1ccc(C(=O)Nc2ccc(CN3CCN(C)CC3)c(C(F)(F)F)c2)cc1C#Cc1cnc2cccnn12    101
O=S(=O)(c1cccc2cnccc12)N1CCCNCC1    38
Cc1nc(Nc2ncc(C(=O)Nc3c(C)cccc3Cl)s2)cc(N2CCN(CCO)CC2)n1    11
CC(=O)Nc1cccc(-n2c(=O)n(C3CC3)c(=O)c3c(Nc4ccc(I)cc4F)n(C)c(=O)c(C)c32)c1    -1.39

Now consider a different molecule.
Query: For the molecule shown here, CS(=O)(=O)CCNCc1ccc(-c2ccc3ncnc(Nc4ccc(OCc5cccc(F)c5)c(Cl)c4)c3c2)o1 , give the reported %-inhibition of p70S6K.
Reply: 8

====

Items are presented alongside their recorded %-inhibition of FGFR3(K650E).
# assayed_target: panel of more than 300 wild-type and mutant kinases (313 kinase panel) (Homo sapiens, UniProt P22607, K650E)
# Sequence (P22607 23-806 K650E): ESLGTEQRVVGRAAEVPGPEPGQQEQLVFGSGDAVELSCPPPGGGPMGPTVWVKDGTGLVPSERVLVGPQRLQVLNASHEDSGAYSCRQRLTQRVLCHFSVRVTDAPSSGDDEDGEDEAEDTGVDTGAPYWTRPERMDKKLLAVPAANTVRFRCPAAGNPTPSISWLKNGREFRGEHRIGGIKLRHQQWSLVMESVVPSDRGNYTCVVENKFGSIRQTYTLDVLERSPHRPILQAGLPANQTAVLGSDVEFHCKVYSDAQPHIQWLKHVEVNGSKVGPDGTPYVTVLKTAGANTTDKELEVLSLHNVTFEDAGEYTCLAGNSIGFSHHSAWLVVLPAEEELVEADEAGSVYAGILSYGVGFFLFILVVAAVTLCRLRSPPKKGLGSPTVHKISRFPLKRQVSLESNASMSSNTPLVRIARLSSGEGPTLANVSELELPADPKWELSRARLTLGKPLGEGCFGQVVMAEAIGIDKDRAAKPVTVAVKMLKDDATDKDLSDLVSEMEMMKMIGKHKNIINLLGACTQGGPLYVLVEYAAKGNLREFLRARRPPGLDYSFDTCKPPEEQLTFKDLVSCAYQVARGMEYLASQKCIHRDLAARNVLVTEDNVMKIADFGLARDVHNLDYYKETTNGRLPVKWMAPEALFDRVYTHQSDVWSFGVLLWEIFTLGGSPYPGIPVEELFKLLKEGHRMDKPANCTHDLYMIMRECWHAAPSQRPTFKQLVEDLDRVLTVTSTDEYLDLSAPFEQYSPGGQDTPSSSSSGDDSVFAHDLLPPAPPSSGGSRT
# assay_info: Kinase profiling in a biochemical assay panel (mobility shift assays and ELISA), %-inhibition at 1 μM; selectivity entropy
# measurement_setup: kinase FGFR3(K650E); compound at 1 μM
# value in %; strip the unit string

CC(C)(C)c1nc(-c2cccc(NS(=O)(=O)c3c(F)cccc3F)c2F)c(-c2ccnc(N)n2)s1    5
CC(=O)Nc1cccc(-n2c(=O)n(C3CC3)c(=O)c3c(Nc4ccc(I)cc4F)n(C)c(=O)c(C)c32)c1    -1.07

// moving on: another record for %-inhibition of FGFR3(K650E)
Query: Return reported %-inhibition of FGFR3(K650E); argument: CO[C@H]1C[C@@H]2CC[C@@H](C)[C@@](O)(O2)C(=O)C(=O)N2CCCC[C@H]2C(=O)O[C@H]([C@H](C)C[C@@H]2CC[C@@H](OCCO)[C@H](OC)C2)CC(=O)[C@H](C)/C=C(\C)[C@@H](O)[C@@H](OC)C(=O)[C@H](C)C[C@H](C)/C=C/C=C/C=C/1C
Reply: -4.55

====

# assayed_target: panel of more than 300 wild-type and mutant kinases (313 kinase panel) (Homo sapiens, UniProt P16234, V561D)
# Sequence (P16234 24-1089 V561D): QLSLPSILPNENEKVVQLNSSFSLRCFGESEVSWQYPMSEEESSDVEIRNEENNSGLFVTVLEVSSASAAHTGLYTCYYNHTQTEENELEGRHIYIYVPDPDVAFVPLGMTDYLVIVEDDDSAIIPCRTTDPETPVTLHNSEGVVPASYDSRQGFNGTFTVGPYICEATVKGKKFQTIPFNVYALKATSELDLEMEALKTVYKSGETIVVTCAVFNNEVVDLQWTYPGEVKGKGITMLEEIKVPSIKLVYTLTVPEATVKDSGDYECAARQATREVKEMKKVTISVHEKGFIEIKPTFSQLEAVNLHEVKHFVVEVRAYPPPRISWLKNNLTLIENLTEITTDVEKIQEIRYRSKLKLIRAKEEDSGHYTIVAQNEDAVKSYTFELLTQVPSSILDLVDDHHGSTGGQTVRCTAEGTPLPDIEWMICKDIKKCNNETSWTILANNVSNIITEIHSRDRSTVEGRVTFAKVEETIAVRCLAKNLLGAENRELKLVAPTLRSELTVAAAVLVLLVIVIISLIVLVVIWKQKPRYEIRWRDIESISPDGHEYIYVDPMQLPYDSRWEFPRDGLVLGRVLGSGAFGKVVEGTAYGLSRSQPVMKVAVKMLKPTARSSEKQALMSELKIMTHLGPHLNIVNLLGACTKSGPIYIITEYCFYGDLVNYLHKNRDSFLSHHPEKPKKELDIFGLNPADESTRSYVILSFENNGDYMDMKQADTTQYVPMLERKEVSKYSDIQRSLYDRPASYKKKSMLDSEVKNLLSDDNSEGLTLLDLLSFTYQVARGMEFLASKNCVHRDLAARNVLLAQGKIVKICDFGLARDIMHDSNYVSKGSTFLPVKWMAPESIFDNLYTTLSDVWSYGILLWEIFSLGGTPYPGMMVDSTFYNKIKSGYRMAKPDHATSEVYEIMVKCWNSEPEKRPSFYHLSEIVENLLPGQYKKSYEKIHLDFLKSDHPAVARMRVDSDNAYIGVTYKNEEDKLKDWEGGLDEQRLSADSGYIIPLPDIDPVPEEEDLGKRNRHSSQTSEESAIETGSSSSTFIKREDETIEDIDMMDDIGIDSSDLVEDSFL
# assay_info: Kinase profiling in a biochemical assay panel (mobility shift assays and ELISA), %-inhibition at 1 μM; selectivity entropy
# measurement_setup: kinase PDGFRα(V561D); 1 μM
property_name: %-inhibition of PDGFRα(V561D) (%)
Numbers only here, please. The scale is %.

# example entries with known answers
C[C@@H](Oc1cc(-c2cnn(C3CCNCC3)c2)cnc1N)c1c(Cl)ccc(F)c1Cl [crizotinib]    30
COc1cc2nccc(Oc3ccc(NC(=O)C4(C(=O)Nc5ccc(F)cc5)CC4)cc3)c2cc1OC [cabozantinib]    99
COc1cc2c(Nc3ccc(Br)cc3F)ncnc2cc1OCC1CCN(C)CC1 [vandetanib]    100
CO[C@H]1C[C@@H]2CC[C@@H](C)[C@@](O)(O2)C(=O)C(=O)N2CCCC[C@H]2C(=O)O[C@H]([C@H](C)C[C@@H]2CC[C@@H](OCCO)[C@H](OC)C2)CC(=O)[C@H](C)/C=C(\C)[C@@H](O)[C@@H](OC)C(=O)[C@H](C)C[C@H](C)/C=C/C=C/C=C/1C [everolimus]    -6
CCCS(=O)(=O)Nc1ccc(F)c(C(=O)c2c[nH]c3ncc(-c4ccc(Cl)cc4)cc23)c1F [vemurafenib]    56

Query: Given CNC(=O)c1cc(Oc2ccc(NC(=O)Nc3ccc(Cl)c(C(F)(F)F)c3)c(F)c2)ccn1 [regorafenib] , state its recorded %-inhibition of PDGFRα(V561D).
Reply: 101

Entry source: paper PMC3961306
